# Tested on: KM20L2 colon
# TEST_NAME: NCI tumour cell line growth inhibition, 48 h
Where a SMILES comes first, the peptide text is derived from it. [ ]: non-standard residue; d: D form. Phe(F5) = N[CH](Cc1c(F)c(F)c(F)c(F)c1F)C(=O)O
For each entry below, report its TGI value.

Fill in reported TGI for this entry: CCOC(C[C@H](O)[C@H]1COC(=S)S1)OCC > 100 µM

Dear colleague, please send me the reported TGI for Cc1c2ccncc2cc2c1sc1ccncc12 when you can. 25.7 µM

Supply measured TGI of C/C(CN1C(=O)c2ccccc2C1=O)=N\NS(=O)(=O)c1ccc(Br)cc1 in your reply. > 100 µM

Please list TGI recorded for the compound CC(C)=CCCC1(C)C=Cc2c(c(C)cc3c2[nH]c2cc(O)ccc23)O1 (centres undefined) > 25 µM

Tell me its TGI given COc1cc(/C=C\c2ccccn2)cc(OC)c1OC as the entry. > 100 µM

Indicate its recorded TGI; the compound in question is CCCC(O)[C@@H](O)c1ccc2c(c1O)C(=O)c1c(OC)cccc1C2=O (some centres undefined) > 100 µM

Output TGI of CCOP(=O)(OCC)C1CCCCOC1=O (centres undefined) > 100 µM

Determine its reported TGI: COc1ccc(/C=C(\Cl)c2ccc(OC)c(OC)c2)cc1OC > 100 µM

Give the value of TGI reported for the following: CN(C(=O)C12C3C4C1C1C2C3C41I)C(C)(C)C (centres undefined) > 100 µM

Quote TGI reported for CCOC(=O)CSc1ccnc(=O)[nH]1 please. > 100 µM

Return TGI (reported value) for this compound: NS(=O)(=O)c1cc2c(cc1Cl)NC(C(=O)c1cc(=O)c3ccc(O)cc3o1)=NS2(=O)=O > 100 µM

Given CC1(Sc2ccccc2)CN(Cc2ccccc2)C1=O (centres undefined) , respond with its TGI. > 100 µM

Answer with the recorded TGI for the compound listed here: COC(=O)C(CC(C)C)NC(=O)C(Cc1cnc[nH]1)NC(=O)CNC(=O)C(NC(=O)C(C)NC(=O)C(Cc1c[nH]c2ccccc12)NC(=O)C(CCC(=O)O)NC(=O)C(N)Cc1c(F)c(F)c(F)c(F)c1F)C(C)C (centres undefined) (H-[Phe(F5)]EWAVGHL-OMe; configuration not given here) > 100 µM

Tell me TGI reported for C=C1C(=O)O[C@H]2C[C@@H](C)[C@@H]3CC(=O)OC[C@@]3(C)CC12 (some centres undefined) 52.2 µM

Complete the entry with TGI for NC(=O)OCC(COc1ccc(Cl)cc1)OC(=O)c1ccccc1Cl (centres undefined) 34.9 µM

Given COc1cc(NC(C)=O)c2[nH]c3c(C)cc(NC(C)=O)c(C)c3c2c1 , respond with its TGI. > 100 µM

Consider the compound CC#COP(=O)(OCC)OCC and give its recorded TGI. > 100 µM

Using known records, supply TGI for COc1ccc(Br)c2c1CC(C(=O)O)CC2 (centres undefined) > 100 µM

Given CCOC(=O)C=C1CCN(C(=O)c2ccccc2)CC1 , respond with its TGI. > 100 µM

###

# Tested on: SF-539 CNS
# TEST_NAME: NCI tumour cell line growth inhibition, 48 h
OBSERVED_PROPERTY: GI50

Output GI50 of N#CC(C#N)=CN1CCN(C(=O)c2ccco2)C1=S 2.48 µM

Tell me measured GI50 for Cc1cc(N2CCCCC2)nc(N(CCNc2ccnc3cc(Cl)ccc23)Cc2ccco2)n1 please. 2.05 µM

Quote GI50 reported for CCC[CH2][Sn]([CH2]CCC)([O]C(C)=O)[O]C(C)=O please. 1.53 µM

Using the record for O=S(=O)(c1ccc(NC(=S)NCc2cccnc2)cc1)N1CCCCC1 , state its measured GI50. 0.446 µM

Read off the recorded GI50 for COc1ccc(Cn2nc(-c3cc(OC)c(OC)c(OC)c3)c3c2CCc2cnoc2-3)cc1OC 3.11 µM
